# TEST SYSTEM: soluble guanylate cyclase (sGC) endogenously expressed in HEK293 cells (Homo sapiens, UniProt Q02108+Q02153)
# Construct: endogenously expressing soluble guanylate cyclase (sGC); endogenous in cells; host or cells: HEK293
# Sequence (Q02153 whole entry): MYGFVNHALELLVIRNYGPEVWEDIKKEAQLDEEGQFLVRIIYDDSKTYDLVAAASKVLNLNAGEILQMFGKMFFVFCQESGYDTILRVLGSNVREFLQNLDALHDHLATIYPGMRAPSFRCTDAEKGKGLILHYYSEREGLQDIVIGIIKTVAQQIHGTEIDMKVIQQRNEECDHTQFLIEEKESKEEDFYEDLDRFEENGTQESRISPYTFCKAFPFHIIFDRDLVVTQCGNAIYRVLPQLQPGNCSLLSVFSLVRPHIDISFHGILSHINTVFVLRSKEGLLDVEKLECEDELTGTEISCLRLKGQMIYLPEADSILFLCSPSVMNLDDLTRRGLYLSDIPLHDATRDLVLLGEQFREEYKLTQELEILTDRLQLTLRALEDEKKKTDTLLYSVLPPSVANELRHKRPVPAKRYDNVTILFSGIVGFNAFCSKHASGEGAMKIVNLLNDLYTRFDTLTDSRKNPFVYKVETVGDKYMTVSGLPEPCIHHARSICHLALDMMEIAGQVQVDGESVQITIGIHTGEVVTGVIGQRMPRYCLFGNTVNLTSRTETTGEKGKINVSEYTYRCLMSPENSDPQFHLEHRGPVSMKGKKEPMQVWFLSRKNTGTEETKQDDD
# Sequence (Q02108 whole entry): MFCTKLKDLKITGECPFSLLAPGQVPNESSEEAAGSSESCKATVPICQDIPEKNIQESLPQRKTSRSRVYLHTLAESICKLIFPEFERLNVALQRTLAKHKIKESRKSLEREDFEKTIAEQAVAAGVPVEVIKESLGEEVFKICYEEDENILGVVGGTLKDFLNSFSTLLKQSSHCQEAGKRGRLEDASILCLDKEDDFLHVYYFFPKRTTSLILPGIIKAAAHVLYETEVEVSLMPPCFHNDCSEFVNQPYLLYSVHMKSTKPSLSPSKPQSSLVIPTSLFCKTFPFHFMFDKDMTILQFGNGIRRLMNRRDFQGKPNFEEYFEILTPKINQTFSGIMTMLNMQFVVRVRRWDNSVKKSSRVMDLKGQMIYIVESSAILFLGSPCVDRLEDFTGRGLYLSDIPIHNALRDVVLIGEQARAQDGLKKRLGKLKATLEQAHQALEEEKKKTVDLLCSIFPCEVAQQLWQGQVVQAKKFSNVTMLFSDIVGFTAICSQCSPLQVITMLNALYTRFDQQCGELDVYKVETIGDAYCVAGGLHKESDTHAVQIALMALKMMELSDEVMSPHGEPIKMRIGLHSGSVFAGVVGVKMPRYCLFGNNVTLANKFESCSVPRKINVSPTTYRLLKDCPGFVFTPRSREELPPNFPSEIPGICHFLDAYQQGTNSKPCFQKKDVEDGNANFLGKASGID
# MEASUREMENT NOTES: sGC-HEK-cGMP assay with LC/MS detection (whole cell)
# Assay type: cell-based
# STATED CONDITIONS: 10 μM DETA-NONOate, 20 min, concentration eliciting 50% of high control response (30 μM Compound Y), read-out: sGC_HEK_LC MS EC50 Abs
pEC50: −log10 of the molar value.
ENDPOINT NAME: pEC50

Worked examples, 3 compounds total:
COMPOUND: CC1(C(N)=O)C(=O)Nc2nc(-c3cc(OC(F)F)n(CCC(F)(F)C(F)(F)F)n3)nc(N)c21 (stereo not shown)
OBSERVED MEASUREMENT: ≤ 6.00
--
COMPOUND: CC1(C(N)=O)C(=O)Nc2nc(-c3nn(Cc4ccccc4F)c(=O)[nH]3)nc(N)c21 (stereo not shown)
OBSERVED MEASUREMENT: ≤ 6.00
--
COMPOUND: COc1cc(-c2ncc(F)c(NC[C@@H](C(=O)O)C(C)C)n2)nn1Cc1ccccc1F
OBSERVED MEASUREMENT: 6.00 to 7.00

Here is the next item to consider.
Request: Look up pEC50: CCOC(=O)C1(C)C(=O)Nc2nc(-c3cc(OC(C)C)n(Cc4ccccc4F)n3)nc(N)c21 (stereo not shown)
Response: ≤ 6.00

----------
# TEST SYSTEM: soluble guanylate cyclase (sGC) endogenously expressed in HEK293 cells (Homo sapiens, UniProt Q02108+Q02153)
# Construct: endogenously expressing soluble guanylate cyclase (sGC); endogenous in cells
# MEASUREMENT NOTES: sGC-HEK-cGMP assay with LC/MS detection (whole cell)
# STATED CONDITIONS: 10 μM DETA-NONOate, 20 min, concentration eliciting 50% of high control response (30 μM Compound Y), read-out: sGC_HEK_LC MS EC50 Abs
# key: entry, value: EC50

Worked examples, 2 compounds total:
COMPOUND: COC(=O)NC1(C)C(=O)Nc2nc(-c3cc(OC)n(Cc4ccccc4F)n3)[nH]c(=O)c21 (centres unmarked)
EC50: ≥ 1000 nM
--
COMPOUND: COc1cc(-c2ncc(F)c(NCC(O)CO)n2)nn1Cc1ccccc1F (centres unmarked)
EC50: ≥ 1000 nM

Request: Look up EC50: CC1(C(N)=O)C(=O)Nc2nc(-c3cc(OC(F)F)n(Cc4cccc(F)c4F)n3)nc(N)c21 (centres unmarked)
Response: 101 to 1000 nM

Request: Look up EC50: COc1cc(-c2ncc(F)c(NCc3cc(=O)[nH]o3)n2)nn1Cc1ccccc1F
Response: ≥ 1000 nM

Request: Look up EC50: COc1cc(-c2ncc(F)c(N3CCCC3)n2)nn1Cc1ccccc1F
Response: ≥ 1000 nM

Request: Look up EC50: Fc1cnc(-c2cc(OC(F)F)n(Cc3cccc(F)c3F)n2)nc1
Response: ≥ 1000 nM

Request: Look up EC50: COc1cc(-c2ncc(F)c(N(C)C)n2)nn1Cc1ccccc1F
Response: ≥ 1000 nM

Request: Look up EC50: CCOC(=O)C1(C)C(=O)Nc2nc(-c3nn(Cc4ccccc4F)c(OC)c3C)nc(N)c21 (centres unmarked)
Response: 101 to 1000 nM

----------
# TEST SYSTEM: soluble guanylate cyclase (sGC) endogenously expressed in HEK293 cells (Homo sapiens, UniProt Q02108+Q02153)
# Construct: endogenously expressing soluble guanylate cyclase (sGC); endogenous in cells
# MEASUREMENT NOTES: sGC-HEK-cGMP assay with LC/MS detection (whole cell)
# STATED CONDITIONS: 10 μM DETA-NONOate, 20 min, concentration eliciting 50% of high control response (30 μM Compound Y), read-out: sGC_HEK_LC MS EC50 Abs
pEC50: −log10 of the molar value.
ENDPOINT NAME: pEC50

Worked examples, 3 compounds total:
COMPOUND: CCOC(=O)C1(C)C(=O)Nc2nc(-c3cc(OC(F)F)n(Cc4cccc(F)c4F)n3)nc(N)c21 (stereo not drawn)
pEC50: 6.00 to 7.00
//
COMPOUND: COc1c(C)c(-c2nc(N)c3c(n2)NC(=O)C3(C)C(N)=O)nn1Cc1ccccc1F (stereo not drawn)
pEC50: ≤ 6.00
//
COMPOUND: CC1(C(N)=O)C(=O)Nc2nc(-c3cc(O)n(Cc4ccccc4F)n3)nc(N)c21 (stereo not drawn)
pEC50: ≤ 6.00

Request: Look up pEC50: CCOC(=O)C1(C)C(=O)Nc2nc(-c3nc(OC)n(Cc4ccccc4F)n3)nc(N)c21 (stereo not drawn)
Response: ≤ 6.00

----------
# key: entry, value: EC50
# TEST SYSTEM: soluble guanylate cyclase (sGC) endogenously expressed in HEK293 cells (Homo sapiens, UniProt Q02108+Q02153)
# Construct: endogenously expressing soluble guanylate cyclase (sGC); endogenous in cells
# MEASUREMENT NOTES: sGC-HEK-cGMP assay with LC/MS detection (whole cell)
# STATED CONDITIONS: 10 μM DETA-NONOate, 20 min, concentration eliciting 50% of high control response (30 μM Compound Y), read-out: sGC_HEK_LC MS EC50 Abs

Request: Look up EC50: COc1cc(-c2ncc(F)c(N3CCC[C@H](C)[C@@H]3C(=O)O)n2)nn1Cc1ccccc1F
Response: 101 to 1000 nM

Request: Look up EC50: COc1cc(-c2nc3c(c(=O)[nH]2)=C(C)C(=O)N=3)nn1Cc1ccccc1F
Response: ≥ 1000 nM

Request: Look up EC50: CC1(C)C(=O)Nc2nc(-c3cc(OC(F)F)n(Cc4cccc(F)c4F)n3)nc(N)c21
Response: 101 to 1000 nM

Request: Look up EC50: COc1nc(-c2nc(N)c3c(n2)NC(=O)C3(C)C(=O)NC2CC2)nn1Cc1ccccc1F (centres unmarked)
Response: ≥ 1000 nM

Request: Look up EC50: COc1cc(-c2nc3c(c(=O)[nH]2)C(C)(C(=O)NC2CC2)C(=O)N3)nn1Cc1ccccc1F (centres unmarked)
Response: ≥ 1000 nM

----------
# key: entry, value: pEC50
# TEST SYSTEM: soluble guanylate cyclase (sGC) endogenously expressed in HEK293 cells (Homo sapiens, UniProt Q02108+Q02153)
# Construct: endogenously expressing soluble guanylate cyclase (sGC); endogenous in cells
# MEASUREMENT NOTES: sGC-HEK-cGMP assay with LC/MS detection (whole cell)
# STATED CONDITIONS: 10 μM DETA-NONOate, 20 min, concentration eliciting 50% of high control response (30 μM Compound Y), read-out: sGC_HEK_LC MS EC50 Abs
pEC50: −log10 of the molar value.

Worked examples, 3 compounds total:
COMPOUND: CCOC(=O)C1(C)C(=O)Nc2nc(-c3cc(OCC)n(Cc4ccccc4F)n3)nc(N)c21 (stereo not drawn)
ENDPOINT NAME: pEC50
OBSERVED MEASUREMENT: 6.00 to 7.00
--
COMPOUND: COc1cc(-c2ncc(F)c(=O)[nH]2)nn1Cc1ccccc1F
ENDPOINT NAME: pEC50
OBSERVED MEASUREMENT: ≤ 6.00
--
COMPOUND: COc1cc(-c2ncc(F)c(NC(c3nnn[nH]3)C(C)C)n2)nn1Cc1ccccc1F (stereo not drawn)
ENDPOINT NAME: pEC50
OBSERVED MEASUREMENT: ≤ 6.00

Request: Look up pEC50: COc1cc(-c2ncc(F)c(N3CCOCC3)n2)nn1Cc1ccccc1F
Response: ≤ 6.00

Request: Look up pEC50: CCOC(=O)C1(C)C(=O)Nc2nc(-c3cc(OC)n(Cc4ccccc4F)n3)[nH]c(=O)c21 (stereo not drawn)
Response: 6.00 to 7.00

Request: Look up pEC50: COc1cc(-c2ncc(F)c(NCC(O)(C(N)=O)C(F)(F)F)n2)nn1Cc1ccccc1F (stereo not drawn)
Response: 6.00 to 7.00

Request: Look up pEC50: CC1(C(=O)NC2CC2)C(=O)Nc2nc(-c3cc(OC(F)F)n(Cc4cccc(F)c4F)n3)nc(N)c21 (stereo not drawn)
Response: 6.00 to 7.00

Request: Look up pEC50: COc1cc(-c2nc(N)c3c(n2)NC(=O)C3(C)C(N)=O)nn1Cc1ccccc1F (stereo not drawn)
Response: 6.00 to 7.00

Request: Look up pEC50: COc1cc(-c2nc(N)c3c(n2)NC(=O)C3(C)C(N)=O)nn1CCC(F)(F)F (stereo not drawn)
Response: ≤ 6.00

Request: Look up pEC50: COc1cc(-c2ncc(F)c(N3CCCCC3)n2)nn1Cc1ccccc1F
Response: ≤ 6.00
